Molecular target: Calcium/calmodulin-dependent protein kinase type IV (Homo sapiens)
Sequence (Q16566 whole entry): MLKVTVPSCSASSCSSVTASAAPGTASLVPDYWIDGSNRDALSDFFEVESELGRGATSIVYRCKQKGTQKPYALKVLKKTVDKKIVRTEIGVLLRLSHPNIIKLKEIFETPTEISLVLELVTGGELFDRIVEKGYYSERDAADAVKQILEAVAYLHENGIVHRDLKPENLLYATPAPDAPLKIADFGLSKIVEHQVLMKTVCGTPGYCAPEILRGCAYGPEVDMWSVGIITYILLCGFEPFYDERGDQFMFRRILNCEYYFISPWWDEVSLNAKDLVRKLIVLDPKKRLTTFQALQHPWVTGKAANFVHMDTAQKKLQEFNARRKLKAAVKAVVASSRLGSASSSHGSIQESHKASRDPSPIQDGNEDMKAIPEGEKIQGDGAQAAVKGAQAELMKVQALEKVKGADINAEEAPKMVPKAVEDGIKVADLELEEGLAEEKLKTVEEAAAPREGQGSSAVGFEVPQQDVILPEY
Assay: Inhibition of CAMK4 (unknown origin)
Property: IC50

Form field: reported IC50 of O=C(Nc1ccc(Oc2ncnc3[nH]ncc23)cc1)Nc1ccc(Cl)c(C(F)(F)F)c1 > 10 µM

====

Molecular target: RAF proto-oncogene serine/threonine-protein kinase (Homo sapiens, UniProt P04049)
Sequence (P04049 whole entry): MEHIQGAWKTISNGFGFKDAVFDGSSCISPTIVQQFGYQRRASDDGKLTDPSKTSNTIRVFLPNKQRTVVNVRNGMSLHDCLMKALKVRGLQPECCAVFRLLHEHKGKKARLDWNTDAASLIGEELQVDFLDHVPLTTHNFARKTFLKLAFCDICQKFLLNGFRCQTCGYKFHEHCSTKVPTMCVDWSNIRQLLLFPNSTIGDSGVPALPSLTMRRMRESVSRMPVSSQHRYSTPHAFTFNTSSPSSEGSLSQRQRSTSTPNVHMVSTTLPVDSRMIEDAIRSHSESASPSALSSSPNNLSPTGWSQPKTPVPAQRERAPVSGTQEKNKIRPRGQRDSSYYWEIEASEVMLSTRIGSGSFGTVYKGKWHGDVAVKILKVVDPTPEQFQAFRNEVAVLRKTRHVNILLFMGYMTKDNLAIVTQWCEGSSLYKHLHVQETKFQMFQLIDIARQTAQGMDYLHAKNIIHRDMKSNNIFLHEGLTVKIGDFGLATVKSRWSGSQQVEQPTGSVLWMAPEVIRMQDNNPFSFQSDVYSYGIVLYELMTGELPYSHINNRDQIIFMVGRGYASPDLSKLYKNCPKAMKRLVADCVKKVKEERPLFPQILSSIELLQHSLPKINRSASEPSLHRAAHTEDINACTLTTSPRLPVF
Property: IC50
Write the numeric value and append its unit.

Entry O=C(Nc1ccc(Oc2ncnc3[nH]ncc23)cc1)Nc1ccc(Cl)c(C(F)(F)F)c1 : reported IC50 = ? 72 nM

====

Biological target: Megakaryocyte-associated tyrosine-protein kinase (Homo sapiens, UniProt P42679)
Sequence (P42679 whole entry): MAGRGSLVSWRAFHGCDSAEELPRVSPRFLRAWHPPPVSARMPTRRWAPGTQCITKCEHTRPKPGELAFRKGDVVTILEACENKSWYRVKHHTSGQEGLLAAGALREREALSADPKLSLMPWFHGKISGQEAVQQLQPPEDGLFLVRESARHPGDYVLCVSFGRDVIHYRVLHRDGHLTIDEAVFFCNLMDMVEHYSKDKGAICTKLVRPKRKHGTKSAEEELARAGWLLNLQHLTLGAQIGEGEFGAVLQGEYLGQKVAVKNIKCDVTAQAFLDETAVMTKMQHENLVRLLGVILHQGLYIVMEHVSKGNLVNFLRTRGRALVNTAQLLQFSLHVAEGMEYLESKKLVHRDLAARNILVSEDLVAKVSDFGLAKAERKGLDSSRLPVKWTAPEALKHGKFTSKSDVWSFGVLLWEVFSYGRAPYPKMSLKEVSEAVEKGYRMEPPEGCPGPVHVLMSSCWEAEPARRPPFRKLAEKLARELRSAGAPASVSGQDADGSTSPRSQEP
pIC50: −log10 of the molar value.
Property: pIC50

Returns the measured pIC50 for the input compound. Input: O=C(Nc1ccc(Oc2ncnc3[nH]ncc23)cc1)Nc1ccc(Cl)c(C(F)(F)F)c1 < 5.00

====

Target: Aurora kinase B (Homo sapiens, UniProt Q96GD4)
Sequence (Q96GD4 whole entry): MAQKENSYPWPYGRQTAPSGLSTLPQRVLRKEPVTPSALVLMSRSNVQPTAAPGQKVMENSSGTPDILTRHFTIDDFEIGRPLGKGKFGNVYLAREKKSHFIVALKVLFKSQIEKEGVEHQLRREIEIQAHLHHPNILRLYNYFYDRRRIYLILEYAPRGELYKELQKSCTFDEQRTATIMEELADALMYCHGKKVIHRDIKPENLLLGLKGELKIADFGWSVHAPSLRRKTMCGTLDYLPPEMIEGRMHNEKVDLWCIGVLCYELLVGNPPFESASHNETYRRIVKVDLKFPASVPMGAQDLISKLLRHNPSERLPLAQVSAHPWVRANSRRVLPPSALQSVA
pIC50: −log10 of the molar value.
Property: pIC50

Can you look up the measured pIC50 of O=C(Nc1ccc(Oc2ncnc3[nH]ncc23)cc1)Nc1ccc(Cl)c(C(F)(F)F)c1 for me? < 5.00

====

Biological target: Receptor-type tyrosine-protein kinase FLT3 (Homo sapiens, UniProt P36888, ITD)
Sequence (P36888 whole entry, looked up, change not shown): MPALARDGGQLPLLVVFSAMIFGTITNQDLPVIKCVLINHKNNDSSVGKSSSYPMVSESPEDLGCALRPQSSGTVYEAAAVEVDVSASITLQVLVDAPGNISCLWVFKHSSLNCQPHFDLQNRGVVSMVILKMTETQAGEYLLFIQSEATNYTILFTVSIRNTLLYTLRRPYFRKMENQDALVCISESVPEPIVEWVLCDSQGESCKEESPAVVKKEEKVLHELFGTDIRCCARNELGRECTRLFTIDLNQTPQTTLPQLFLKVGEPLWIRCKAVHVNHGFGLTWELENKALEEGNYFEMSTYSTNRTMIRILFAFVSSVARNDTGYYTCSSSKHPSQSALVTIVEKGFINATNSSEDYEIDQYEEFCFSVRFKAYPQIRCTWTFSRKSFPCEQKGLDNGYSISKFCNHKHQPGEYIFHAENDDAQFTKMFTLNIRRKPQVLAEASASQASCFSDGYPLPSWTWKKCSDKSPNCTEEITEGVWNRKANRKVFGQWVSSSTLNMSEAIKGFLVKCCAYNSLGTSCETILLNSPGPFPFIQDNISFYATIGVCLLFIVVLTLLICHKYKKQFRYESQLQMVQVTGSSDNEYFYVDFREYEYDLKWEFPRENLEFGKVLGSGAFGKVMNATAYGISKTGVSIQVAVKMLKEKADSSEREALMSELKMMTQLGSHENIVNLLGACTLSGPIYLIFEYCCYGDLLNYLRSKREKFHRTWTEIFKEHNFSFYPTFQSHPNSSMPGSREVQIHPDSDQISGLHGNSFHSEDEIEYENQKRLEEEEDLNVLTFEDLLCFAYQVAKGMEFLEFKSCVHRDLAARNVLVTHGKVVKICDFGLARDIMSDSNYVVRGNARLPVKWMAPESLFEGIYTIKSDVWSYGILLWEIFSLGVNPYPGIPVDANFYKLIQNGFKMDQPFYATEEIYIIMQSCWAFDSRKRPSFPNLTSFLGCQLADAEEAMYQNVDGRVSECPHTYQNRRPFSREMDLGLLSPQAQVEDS
Assay: Binding affinity to FLT3-ITD mutant (unknown origin)
In this section we review reported pKd values for a set of compounds.
Note on pKd: it is the negative log10 of concentration, concentration in mol/L.

Worked cases, answers included:
Smi: O=C(Nc1ccc(Oc2ncnc3[nH]ncc23)cc1)Nc1ccc(C(F)(F)F)cc1
Endpoint Value: 6.04

Smi: O=C(Nc1ccc(Oc2ncnc3[nH]ncc23)cc1)Nc1cccc(C(F)(F)F)c1
Endpoint Value: 8.18

# get_value(readout='pKd', item= O=C(Nc1ccc(Oc2ncnc3[nH]ncc23)cc1)Nc1ccc(Cl)c(C(F)(F)F)c1 ) 8.37

====

Biological target: Mast/stem cell growth factor receptor Kit (Homo sapiens)
Sequence (P10721 whole entry): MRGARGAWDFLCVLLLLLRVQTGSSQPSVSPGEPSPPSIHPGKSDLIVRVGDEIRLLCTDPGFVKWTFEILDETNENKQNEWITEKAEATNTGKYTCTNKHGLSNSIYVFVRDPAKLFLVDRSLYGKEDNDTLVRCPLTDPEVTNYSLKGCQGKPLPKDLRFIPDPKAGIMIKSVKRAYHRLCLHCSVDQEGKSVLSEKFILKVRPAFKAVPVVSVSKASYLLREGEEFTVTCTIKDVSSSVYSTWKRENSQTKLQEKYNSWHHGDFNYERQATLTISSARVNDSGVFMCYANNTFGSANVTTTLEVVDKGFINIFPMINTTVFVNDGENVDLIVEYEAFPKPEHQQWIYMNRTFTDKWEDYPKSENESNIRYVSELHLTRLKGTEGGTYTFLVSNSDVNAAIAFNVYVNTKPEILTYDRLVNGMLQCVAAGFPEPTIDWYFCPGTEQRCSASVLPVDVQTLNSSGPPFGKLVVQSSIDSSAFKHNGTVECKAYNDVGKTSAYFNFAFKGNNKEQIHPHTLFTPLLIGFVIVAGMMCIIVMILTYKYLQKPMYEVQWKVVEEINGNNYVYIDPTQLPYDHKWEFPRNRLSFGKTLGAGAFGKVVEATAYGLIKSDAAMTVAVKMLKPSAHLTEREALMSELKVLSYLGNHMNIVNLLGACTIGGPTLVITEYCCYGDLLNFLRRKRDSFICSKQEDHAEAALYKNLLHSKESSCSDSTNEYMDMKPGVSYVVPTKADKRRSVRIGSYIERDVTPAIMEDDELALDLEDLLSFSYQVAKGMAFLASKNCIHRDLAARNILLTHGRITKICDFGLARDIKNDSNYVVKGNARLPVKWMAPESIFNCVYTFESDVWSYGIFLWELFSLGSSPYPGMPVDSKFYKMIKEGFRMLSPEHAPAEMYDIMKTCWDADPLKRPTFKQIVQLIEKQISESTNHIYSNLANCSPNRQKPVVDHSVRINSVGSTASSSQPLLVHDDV
Property: IC50 (nM)
Hi! Could you send only the number? It should be in nM, unit omitted.

Observed IC50 on Mast/stem cell growth factor receptor Kit (Homo sapiens) for O=C(Nc1ccc(Oc2ncnc3[nH]ncc23)cc1)Nc1ccc(Cl)c(C(F)(F)F)c1 , please. 507

====

Target: Mitogen-activated protein kinase kinase kinase 9 (Homo sapiens)
Sequence (P80192 whole entry): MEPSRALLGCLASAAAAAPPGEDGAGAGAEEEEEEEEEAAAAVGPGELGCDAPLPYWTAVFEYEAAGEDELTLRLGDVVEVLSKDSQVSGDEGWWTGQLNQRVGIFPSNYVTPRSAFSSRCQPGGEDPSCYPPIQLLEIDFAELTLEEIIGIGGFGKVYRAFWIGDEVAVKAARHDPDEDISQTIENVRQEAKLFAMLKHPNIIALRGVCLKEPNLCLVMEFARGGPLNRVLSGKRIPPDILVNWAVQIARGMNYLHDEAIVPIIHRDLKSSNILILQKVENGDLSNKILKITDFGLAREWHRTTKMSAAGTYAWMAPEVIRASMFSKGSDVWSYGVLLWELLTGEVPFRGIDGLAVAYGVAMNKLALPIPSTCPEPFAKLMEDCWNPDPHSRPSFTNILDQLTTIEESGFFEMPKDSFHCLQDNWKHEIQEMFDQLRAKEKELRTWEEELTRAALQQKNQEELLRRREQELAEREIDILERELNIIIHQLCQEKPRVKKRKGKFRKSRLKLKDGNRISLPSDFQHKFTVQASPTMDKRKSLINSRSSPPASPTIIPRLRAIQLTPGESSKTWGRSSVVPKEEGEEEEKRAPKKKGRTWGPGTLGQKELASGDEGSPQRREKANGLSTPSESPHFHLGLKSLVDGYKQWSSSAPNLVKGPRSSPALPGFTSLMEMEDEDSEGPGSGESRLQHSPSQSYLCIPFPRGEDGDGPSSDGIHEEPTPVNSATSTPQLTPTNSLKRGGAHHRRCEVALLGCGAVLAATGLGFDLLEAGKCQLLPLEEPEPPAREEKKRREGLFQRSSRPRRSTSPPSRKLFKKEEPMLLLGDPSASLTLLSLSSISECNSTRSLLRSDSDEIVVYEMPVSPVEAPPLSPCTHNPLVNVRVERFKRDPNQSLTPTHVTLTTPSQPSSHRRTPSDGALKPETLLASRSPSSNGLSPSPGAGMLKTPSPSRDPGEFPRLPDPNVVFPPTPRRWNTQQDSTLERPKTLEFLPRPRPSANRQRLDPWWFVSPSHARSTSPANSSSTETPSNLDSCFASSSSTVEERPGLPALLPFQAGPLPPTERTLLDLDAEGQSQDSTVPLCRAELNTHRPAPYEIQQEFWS
Test: Inhibition of MLK1 (unknown origin)
Property: IC50

Dear colleague, I am looking for the recorded IC50 of the following compound: O=C(Nc1ccc(Oc2ncnc3[nH]ncc23)cc1)Nc1ccc(Cl)c(C(F)(F)F)c1 > 10 µM

====

Biological target: UniProtKB P24941
Property: IC50

Give the measured IC50 of O=C(Nc1ccc(Oc2ncnc3[nH]ncc23)cc1)Nc1ccc(Cl)c(C(F)(F)F)c1 . > 10 µM

====

Assay: AUC (0 to 24 hrs) in Sprague-Dawley rat at 10 mg/kg/day, po
Format: ADME, organism-based
Design: dose 10 mg/kg/day, time < 24 hr, route oral
Conditions: plasma
Property: AUC at 24 h
// return the numeric value with its unit appended

Please give the measured AUC at 24 h for this compound: O=C(Nc1ccc(Oc2ncnc3[nH]ncc23)cc1)Nc1ccc(Cl)c(C(F)(F)F)c1 319 µg·h/mL

====

Molecular target: Platelet-derived growth factor receptor alpha (Homo sapiens)
Property: IC50 (nM)
Respond numerically; units are nM and should not be typed.

Fill in the recorded IC50 for this molecule, with Platelet-derived growth factor receptor alpha (Homo sapiens) as test system: O=C(Nc1ccc(Oc2ncnc3[nH]ncc23)cc1)Nc1ccc(Cl)c(C(F)(F)F)c1 223

Data provenance: ChEMBL document CHEMBL2331331
